# TESTED ON: PI3K-α (Homo sapiens, UniProt P42336)
# Sequence (P42336 whole entry): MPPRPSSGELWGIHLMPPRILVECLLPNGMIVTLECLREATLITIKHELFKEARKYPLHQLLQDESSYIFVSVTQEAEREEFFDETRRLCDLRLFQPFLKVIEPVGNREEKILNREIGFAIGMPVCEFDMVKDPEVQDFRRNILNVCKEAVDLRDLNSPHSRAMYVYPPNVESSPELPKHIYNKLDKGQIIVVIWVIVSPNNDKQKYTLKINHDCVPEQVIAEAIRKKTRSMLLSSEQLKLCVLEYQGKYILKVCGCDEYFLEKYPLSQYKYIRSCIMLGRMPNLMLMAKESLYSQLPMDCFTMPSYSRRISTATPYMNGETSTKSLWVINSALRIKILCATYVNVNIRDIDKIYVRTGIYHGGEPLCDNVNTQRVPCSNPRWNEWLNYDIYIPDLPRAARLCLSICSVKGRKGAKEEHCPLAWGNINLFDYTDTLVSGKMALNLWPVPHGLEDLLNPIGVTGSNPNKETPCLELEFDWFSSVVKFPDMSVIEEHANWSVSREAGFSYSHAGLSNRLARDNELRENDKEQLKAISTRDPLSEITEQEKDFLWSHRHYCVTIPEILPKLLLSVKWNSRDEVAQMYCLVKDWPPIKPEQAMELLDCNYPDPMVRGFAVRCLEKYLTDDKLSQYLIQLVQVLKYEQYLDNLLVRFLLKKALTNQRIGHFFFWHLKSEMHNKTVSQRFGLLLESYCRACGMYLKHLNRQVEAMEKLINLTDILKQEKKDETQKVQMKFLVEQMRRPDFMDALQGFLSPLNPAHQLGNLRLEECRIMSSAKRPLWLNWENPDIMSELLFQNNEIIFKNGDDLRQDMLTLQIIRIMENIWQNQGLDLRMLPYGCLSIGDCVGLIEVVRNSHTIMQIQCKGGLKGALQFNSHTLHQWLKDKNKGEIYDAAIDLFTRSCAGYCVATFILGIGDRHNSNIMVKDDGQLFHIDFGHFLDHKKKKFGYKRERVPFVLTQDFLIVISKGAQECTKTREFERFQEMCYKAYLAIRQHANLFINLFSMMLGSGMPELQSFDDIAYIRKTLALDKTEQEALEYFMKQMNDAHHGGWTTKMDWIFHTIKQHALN
# EXPERIMENTAL DETAILS: Assay c) PI3K cellular potency (phospho-Akt T308 ELISA in BT474 cells)
# PARTICULARS: BT474 cells, 2 h, phospho-AKT T308; may be geometric mean of several tests; read-out: Assay c) PI3Kα Cell IC50
pIC50: −log10 of the molar value.
ATTRIBUTE MEASURED: pIC50

CC(C)n1c(=O)n(C)c2cnc3cc(F)c(-c4ccc(OCCCN(C)C)nc4)cc3c21 :: 4.87
CC(C)n1c(=O)n(C)c2cnc3cc(F)c(-c4ccc(OCCCN5CCCC5)nc4)cc3c21 :: 4.94
CC(C)n1c(=O)n(C)c2cnc3cc(F)c(-c4ccc(OCCCN5CCC5)nc4F)cc3c21 :: 5.04
